# measured-on: HCV NS3 helicase NS3h_1b(con1) (Hepatitis C virus genotype 1b)
# Construct: truncated C-terminally His-tagged NS3 proteins lacking the N-terminal protease, called NS3h; His-tag (C); made in house
# Sequence (Q9WMX2 1192-1657): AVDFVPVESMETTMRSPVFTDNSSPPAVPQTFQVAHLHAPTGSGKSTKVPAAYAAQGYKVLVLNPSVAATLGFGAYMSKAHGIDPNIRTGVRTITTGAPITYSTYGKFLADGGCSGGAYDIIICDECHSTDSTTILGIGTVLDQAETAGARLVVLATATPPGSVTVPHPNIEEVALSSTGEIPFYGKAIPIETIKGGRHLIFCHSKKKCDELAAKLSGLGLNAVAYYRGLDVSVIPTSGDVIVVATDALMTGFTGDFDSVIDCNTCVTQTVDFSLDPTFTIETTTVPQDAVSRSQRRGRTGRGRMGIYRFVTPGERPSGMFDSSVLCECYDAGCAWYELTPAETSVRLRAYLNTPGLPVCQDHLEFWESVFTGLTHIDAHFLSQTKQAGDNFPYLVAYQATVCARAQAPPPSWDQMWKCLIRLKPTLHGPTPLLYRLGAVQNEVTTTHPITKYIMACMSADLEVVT
# experiment-summary: MBHA screen of NCI mechanistic set library at 20 μM (percent inhibition, compound interference)
# Assay type: biochemical
# applied-conditions: compounds at 20 μM; assay interference calculated with Equation 2 (fluorescence vs DMSO-only controls before ATP)

compound | Int.* (Ratio) (Interference)
CC[C@H]1CN2CCc3cc(OC)c(OC)cc3[C@@H]2C[C@@H]1C[C@H]1NCCc2cc(O)c(OC)cc21 | 1.02
NC(N)=NCCCS(=O)(=O)Nc1ccc(Nc2c3ccccc3nc3cc([N+](=O)[O-])ccc23)cc1 | 0.49
BrCCC[P+](c1ccccc1)(c1ccccc1)c1ccccc1.[Br-] | 1.11
O=c1[nH]c2ccc(O)cc2o1 | 1.20
O=C1C=C(Nc2cccnc2)c2ccccc2C1=O | 0.97
CCN(CC)CCCC(C)Nc1ccnc(/C=C/c2ccc(Cl)cc2)c1 (stereo not drawn) | 0.88
O=NN(CCCl)C(=O)NCc1ccc[n+]([O-])c1 | 1.08
O=c1ccc2ccc(CBr)cc2o1 | 0.93
Cl.Nc1ccn([C@@H]2O[C@H](CO)[C@@H](O)[C@@H]2O)c(=O)n1 | 0.89

The measurements presented in this section are drawn from patent US9464064B2.
